Target: DP-IV (Homo sapiens, UniProt P27487)
Construct: DP-IV also exists as a soluble circulating form in plasma; from tissue; host or cells: human plasma
Sequence (P27487 39-766 limits assumed): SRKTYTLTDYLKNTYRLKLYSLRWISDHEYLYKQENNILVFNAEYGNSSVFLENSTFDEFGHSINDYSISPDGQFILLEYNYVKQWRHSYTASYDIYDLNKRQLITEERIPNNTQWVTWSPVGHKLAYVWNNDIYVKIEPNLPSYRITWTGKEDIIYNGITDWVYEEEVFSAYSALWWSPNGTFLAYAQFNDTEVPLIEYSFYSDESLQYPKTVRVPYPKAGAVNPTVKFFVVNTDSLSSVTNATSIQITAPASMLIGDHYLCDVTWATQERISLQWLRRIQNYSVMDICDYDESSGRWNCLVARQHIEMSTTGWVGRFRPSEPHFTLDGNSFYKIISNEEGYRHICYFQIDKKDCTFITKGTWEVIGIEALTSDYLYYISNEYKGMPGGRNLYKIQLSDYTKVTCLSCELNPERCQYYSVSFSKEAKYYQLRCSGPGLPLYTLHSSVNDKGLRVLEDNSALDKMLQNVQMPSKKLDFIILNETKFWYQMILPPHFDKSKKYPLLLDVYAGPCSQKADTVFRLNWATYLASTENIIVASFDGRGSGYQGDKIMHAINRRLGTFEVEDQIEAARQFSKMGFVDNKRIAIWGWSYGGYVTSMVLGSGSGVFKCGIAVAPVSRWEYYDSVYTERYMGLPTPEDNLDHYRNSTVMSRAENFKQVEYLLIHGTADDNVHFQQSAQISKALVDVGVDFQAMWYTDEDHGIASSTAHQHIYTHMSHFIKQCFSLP
Assay: DP-IV activity colorimetric assay (Gly-Pro-4-NA hydrolysis, 405 nm) in human plasma
Format: biochemical
Conditions: concentration yielding a DP-IV inhibition of around 50%, human plasma; 70-280 μg/ml tested
pIC50: −log10 of the molar value.
QUANTITY: pIC50

O=c1c(O[C@@H]2OC[C@H](O)[C@H](O)[C@H]2O)c(-c2ccc(O)c(O)c2)oc2cc(O)cc(O)c12 [guaijaverin, quercetin-3-O-alpha-L-arabinopyranoside]    3.32 to 3.49

Origin of values: patent US20080293644A1
